The measurements presented in this section are drawn from PubChem BioAssay AID463212.

Recorded inhibition, one value per entry.
Assay: growth inhibitors of tim23-1 mutant yeast, primary screen, luminescence, uHTS (AID 463212);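 further: temperature-sensitive mutant grown at 25 °C; plate controls were DMSO-treated mutant yeast for no effect and medium wells lacking yeast for full effect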
Details: S. cerevisiae tim23-1 growth, BacTiter-Glo luminescence, 24 h; at 20 µM; hits give high values
Screen size: about 330,000 compounds; about 4,400 (1.3%) were called active. The list comes from a sample in which actives are over-represented; it also holds close analogues and randomly drawn compounds.
OBSERVED PROPERTY: inhibition (%)

[
  {
    "ITEM SMILES": "COc1ccc(OC)c(S(=O)(=O)n2c([N+](=O)[O-])cnc2C)c1",
    "DISPLAY UNIT": "%",
    "REPORTED RESULT": 12.9
  },
  {
    "ITEM SMILES": "CCOc1ccc(C(C)C)cc1S(=O)(=O)n1nc(C)cc1C",
    "DISPLAY UNIT": "%",
    "REPORTED RESULT": 36.9
  },
  {
    "ITEM SMILES": "O=C(NCc1ccc2c(c1)OCO2)c1c(O)nc2sccn2c1=O",
    "DISPLAY UNIT": "%",
    "REPORTED RESULT": 68.2
  },
  {
    "ITEM SMILES": "O=C(N/N=C/c1ccco1)c1csc2c1CCCC2",
    "DISPLAY UNIT": "%",
    "REPORTED RESULT": 22.8
  }
]

###

Assay: growth inhibitors of tim23-1 mutant yeast, primary screen, luminescence, uHTS (AID 463212);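 further: temperature-sensitive mutant grown at 25 °C; plate controls were DMSO-treated mutant yeast for no effect and medium wells lacking yeast for full effect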
Conditions: S. cerevisiae tim23-1 growth, BacTiter-Glo luminescence, 24 h; at 20 µM
Screen size: about 330,000 compounds; about 4,400 (1.3%) were called active.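 The calls were made as follows: active = growth inhibition of the mutant yeast at or above 50%; inactive = the rest.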 This excerpt belongs to a sample that is enriched for actives.
Labels: 1 (active), -1 (inactive)

[
  {
    "COMPOUND": "CCOc1ccc(CCNC(=O)COC(=O)CCS(=O)(=O)c2ccc(C)cc2)cc1OCC",
    "CLASS": -1
  },
  {
    "COMPOUND": "CCc1cccc(NC(=O)CCCN2C(=O)C(c3ccccc3)Oc3cccnc32)c1 (configuration not stated)",
    "CLASS": -1
  },
  {
    "COMPOUND": "N/C(=N\\OC(=O)CCc1ccccc1)c1cccnc1",
    "CLASS": -1
  },
  {
    "COMPOUND": "Cc1nnc(NC(=O)CSc2nc(C3CCCCC3)nc3ccccc23)s1",
    "CLASS": -1
  },
  {
    "COMPOUND": "Cn1nc(C(F)(F)F)cc1C(=O)O",
    "CLASS": -1
  },
  {
    "COMPOUND": "COc1ccc(/C(N)=N/OC(=O)CCCc2ccccc2)cc1",
    "CLASS": 1
  },
  {
    "COMPOUND": "CCOc1ccccc1Oc1cn[nH]c1-c1ccc(OC)cc1O",
    "CLASS": -1
  },
  {
    "COMPOUND": "COc1cccc(CNc2ncc(-c3ccccc3)n2C)c1",
    "CLASS": -1
  },
  {
    "COMPOUND": "Nc1nc2n(n1)C(c1ccco1)CC(c1ccc(Cl)c(Cl)c1)N2 (configuration not stated)",
    "CLASS": -1
  },
  {
    "COMPOUND": "Cc1ccc(NC(=O)C(=O)NCc2ccc(/C=N/NC(=O)c3c(C)nc4cc(C)ccn34)o2)cc1",
    "CLASS": -1
  },
  {
    "COMPOUND": "CC(C)(C)NC(=O)CSc1nnc(NC(=O)CCc2ccccc2)s1",
    "CLASS": -1
  },
  {
    "COMPOUND": "Cc1cc(C(=O)OC(C)C(=O)NC2CCCCC2C)c(C)o1 (configuration not stated)",
    "CLASS": -1
  },
  {
    "COMPOUND": "S=C(NNC(=S)NC1CC2CCC1C2)NC1CC2C=CC1C2 (configuration not stated)",
    "CLASS": -1
  },
  {
    "COMPOUND": "O=C(NCc1nnc(SCC(=O)N2CCCc3ccccc32)o1)c1ccccc1F",
    "CLASS": -1
  },
  {
    "COMPOUND": "O=C1C=C(c2cccc(Cl)c2O)C[C@@H](c2ccc(F)cc2)C1",
    "CLASS": 1
  },
  {
    "COMPOUND": "CCOc1ccc(C(C)NC(=O)CN2C(=O)NC3(CCCCC3)C2=O)cc1OCC (configuration not stated)",
    "CLASS": -1
  },
  {
    "COMPOUND": "Cc1ccc(S(=O)(=O)N[C@@H](Cc2ccccc2)C(=O)N2CCC(C(=O)N[C@H](C(=O)O)C(C)O)CC2)cc1 (some centres not stated)",
    "CLASS": -1
  },
  {
    "COMPOUND": "COc1cccc(N2C(=O)CN(Cc3ccccc3)C2=S)c1",
    "CLASS": -1
  },
  {
    "COMPOUND": "Cc1[nH]c2ccccc2c1-c1ccc(Cl)nn1",
    "CLASS": -1
  },
  {
    "COMPOUND": "N#Cc1cccc(CSc2ncnc(N)n2)c1",
    "CLASS": -1
  },
  {
    "COMPOUND": "COc1ccccc1C(=O)NC(=O)COC(=O)c1ccco1",
    "CLASS": -1
  },
  {
    "COMPOUND": "COc1ccc(/C=C2/C(=O)N(c3ccccc3)N=C2C)c(OC)c1",
    "CLASS": 1
  },
  {
    "COMPOUND": "O=S(=O)(c1cccc2nonc12)N1CCN(c2cccc(Cl)c2)CC1",
    "CLASS": -1
  },
  {
    "COMPOUND": "C[C@H]1CC[C@]2(O[C@@H](CCO)C[C@@H](O)[C@@H]2O)O1",
    "CLASS": -1
  },
  {
    "COMPOUND": "CCOC(=O)CSc1nnc(CNC(=O)Cc2ccccc2)n1-c1ccccc1OC",
    "CLASS": -1
  },
  {
    "COMPOUND": "S=C(NNC(=S)NC1CC2C=CC1C2)NC1CC2C=CC1C2 (configuration not stated)",
    "CLASS": -1
  },
  {
    "COMPOUND": "CCc1ccc(C(=O)NC(=S)Nc2ccccc2N2CCOCC2)cc1",
    "CLASS": 1
  }
]

###

Assay: growth inhibitors of tim23-1 mutant yeast, primary screen, luminescence, uHTS (AID 463212);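 further: temperature-sensitive mutant grown at 25 °C; plate controls were DMSO-treated mutant yeast for no effect and medium wells lacking yeast for full effect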
Conditions: S. cerevisiae tim23-1 growth, BacTiter-Glo luminescence, 24 h; at 20 µM
About 4,400 (1.3%) of roughly 330,000 compounds were called active.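 The calls were made as follows: active = growth inhibition of the mutant yeast at or above 50%; inactive = the rest.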 The sample as a whole holds a higher share of actives than the screen did.
Outcome codes: YES (active), NO (inactive)

[
  {
    "MOLECULE": "Cc1cc(C)nc(NC2=NCC(=O)N2c2ccc(Cl)cc2)n1",
    "CLASS": "NO"
  },
  {
    "MOLECULE": "Cc1c(C(=O)N2CCCc3ccccc32)oc2ccccc12",
    "CLASS": "NO"
  },
  {
    "MOLECULE": "CC(C)(C)OC(=O)NCCCC1=CC2=CC(=O)C(C)(OC(=O)c3ccco3)C(=O)C2=CO1 (configuration not stated)",
    "CLASS": "NO"
  },
  {
    "MOLECULE": "CCN(CC)C(=O)c1nc[nH]c1C(=O)N(C)Cc1ccccc1",
    "CLASS": "NO"
  },
  {
    "MOLECULE": "Cn1nnc2cc(C(=O)NCCC3=CCCCC3)ccc21",
    "CLASS": "NO"
  },
  {
    "MOLECULE": "Cc1csc(NC(=O)c2ccc(C)s2)n1",
    "CLASS": "NO"
  },
  {
    "MOLECULE": "COCCNC(=O)COc1ccc(N(C)S(=O)(=O)c2ccc3ccccc3c2)cc1",
    "CLASS": "NO"
  },
  {
    "MOLECULE": "Cc1cc(C)cc(NC(=O)C2CCCN2S(=O)(=O)c2cccc3cccnc23)c1 (configuration not stated)",
    "CLASS": "NO"
  },
  {
    "MOLECULE": "Fc1ccc(-c2ccc(NCCN3CCOCC3)nn2)cc1",
    "CLASS": "NO"
  },
  {
    "MOLECULE": "CC(=O)Oc1ccc(N(C(C)=O)S(=O)(=O)c2ccc3ccccc3c2)cc1Br",
    "CLASS": "YES"
  },
  {
    "MOLECULE": "COC(=O)c1c(NC(=O)c2ccc(S(=O)(=O)N3CCOCC3)cc2)sc2c1CCN(C(C)C)C2",
    "CLASS": "NO"
  },
  {
    "MOLECULE": "O=C(NCCc1ccc(F)cc1)c1ccc(S(=O)(=O)N2CCCCC2)cc1",
    "CLASS": "YES"
  },
  {
    "MOLECULE": "c1ccc(-c2csc(N3CCc4ccccc4C3)n2)cc1",
    "CLASS": "NO"
  },
  {
    "MOLECULE": "COC(=O)c1cccc(N(C(=O)CNC(=O)c2cccs2)C(C(=O)NCC2CCCO2)c2ccc(OC)c(OC)c2)c1 (configuration not stated)",
    "CLASS": "NO"
  },
  {
    "MOLECULE": "Cc1[nH][nH]c(=O)c1C(c1ccc(-c2ccc(Cl)cc2)o1)c1c(C)[nH][nH]c1=O",
    "CLASS": "YES"
  },
  {
    "MOLECULE": "O=C(c1cc(-c2ccc(O)cc2)on1)N1CCOCC1",
    "CLASS": "NO"
  },
  {
    "MOLECULE": "Clc1ccc(-c2nnc(-c3ccccc3)nc2N2CCSCC2)cc1",
    "CLASS": "NO"
  },
  {
    "MOLECULE": "O=C(Oc1cccc(O)c1)C1CCCCC1",
    "CLASS": "NO"
  },
  {
    "MOLECULE": "CC/C(O)=C1\\C(=O)CC(C)(C)CC1=NCCc1nc2ccccc2[nH]1",
    "CLASS": "NO"
  },
  {
    "MOLECULE": "COC(=O)c1c(NC(=O)CSc2nncs2)sc2c1CCCCC2",
    "CLASS": "YES"
  },
  {
    "MOLECULE": "CCOc1cc2[nH]c(=S)n(CCN3CCCCC3C)c(=O)c2cc1OCC (configuration not stated)",
    "CLASS": "NO"
  },
  {
    "MOLECULE": "CC(CC(=O)N1CCN(S(=O)(=O)c2ccccc2)CC1)n1cncn1 (configuration not stated)",
    "CLASS": "NO"
  },
  {
    "MOLECULE": "CN(CC(=O)Nc1ccc(F)cc1)C(=O)c1ccc(-c2ccc(Cl)cc2)o1",
    "CLASS": "NO"
  },
  {
    "MOLECULE": "COC(=O)c1c(NC(=O)C2CC(C)=C(C)CC2C(=O)O)sc2c1CCCCC2 (configuration not stated)",
    "CLASS": "NO"
  },
  {
    "MOLECULE": "CCCc1cc(C(=O)Nc2ccc(Cl)cn2)cs1",
    "CLASS": "NO"
  },
  {
    "MOLECULE": "Cc1ccc(Oc2nc(-c3ccccn3)nc3ccccc23)cc1",
    "CLASS": "YES"
  },
  {
    "MOLECULE": "COc1cnc(-c2ccccn2)nc1Oc1ccc(C(C)(C)C)cc1",
    "CLASS": "NO"
  }
]
